Taken from patent US20190284136A1.

# Tested on: HIV
# Assay Details: Table 1 IC50 of the examples (assay method not given; patent concerns inhibiting HIV replication)
# Assay type: cell-based
# Protocol Conditions: Human immunodeficiency virus 1
Observed Property: pIC50
Friendly reminder that pIC50 comes from taking -log10 of the concentration in mol/L.

Notebook: pull reported pIC50 for HIV, entry COc1ccc(C(=O)N2CCc3c2cc(C)c([C@H](OC(C)(C)C)C(=O)O)c3-c2cc(F)c3c(c2C)CCCO3)cc1C(F)(F)F (atropisomer, axis not shown)
8.22

HIV / pIC50 / COc1ncccc1C(=O)N1CCc2c1cc(C)c([C@H](OC(C)(C)C)C(=O)O)c2-c1cc(F)c2c(c1C)CCCO2 (atropisomer, axis not shown) : value?
8.30

Request - read-out pIC50 | tested on HIV | molecule COc1ccc(C(=O)N2CCc3c2cc(C)c([C@H](OC(C)(C)C)C(=O)O)c3-c2cc(C)c3c(c2C)CCCO3)cc1C (atropisomer, axis not shown)
7.37

State its pIC50 on HIV: Cc1cc2c(c(-c3cc(F)c4c(c3C)CCCO4)c1[C@H](OC(C)(C)C)C(=O)O)CCN2C(=O)C1CCCc2ccccc21 (some centres unmarked)
7.68

I'm curious: which pIC50 was measured for Cc1cccc(C(=O)N2CCc3c2cc(C)c([C@H](OC(C)(C)C)C(=O)O)c3-c2cc(F)c3c(c2C)CCCO3)c1Cl (atropisomer, axis not shown) tested on HIV?
8.40

* * *

# System: HIV
# Assay Details: Table 1 IC50 of the examples (assay method not given; patent concerns inhibiting HIV replication)
# Assay type: cell-based
# Protocol Conditions: Human immunodeficiency virus 1
pIC50: −log10 of the molar value.
Give MET when the value for pIC50 is at least 8. Give NOT MET when it is less.

Threshold query (pIC50 >= 8) on Cc1ccc(-c2c3c(cc(C)c2C(OC(C)(C)C)C(=O)O)N(C(=O)N2CCCCC2)CC3)cc1 (stereo not drawn) [Example 6]
NOT MET

Does the compound Cc1ccc(C(=O)N2CCc3c2cc(C)c([C@H](OC(C)(C)C)C(=O)O)c3-c2cc(F)c3c(c2C)CCCO3)cc1 (atropisomer, axis not shown) [Example 108] have recorded pIC50 that is 8 or more?
MET

pIC50 >= 8 for Cc1ccc(-c2c3c(cc(C)c2[C@H](OC(C)(C)C)C(=O)O)N(C(=O)c2nc(C)sc2C)CC3)cc1 [Example 26] ?
NOT MET

hey, is pIC50 for this one >= 8? Cc1ccc(-c2c3c(cc(C)c2[C@H](OC(C)(C)C)C(=O)O)N(C(=O)CC2CCCCC2)CC3)cc1 [Example 25]
NOT MET

State whether the measured pIC50 reaches 8, counting equality as reaching it, for COc1ccc(C(=O)n2ccc3c(-c4cc(F)c5c(c4C)CCCO5)c([C@H](OC(C)(C)C)C(=O)O)c(C)cc32)cc1C [Example 202]
NOT MET

Determine whether this compound has pIC50 no lower than 8: Cc1cc2c(c(-c3cc(F)c4c(c3C)CCCO4)c1[C@H](OC(C)(C)C)C(=O)O)CCN2C(=O)C1CCOCC1 (atropisomer, axis not shown) [Example 65]
NOT MET

State whether the measured pIC50 reaches 8, counting equality as reaching it, for Cc1cc2c(c(-c3cc(F)c4c(c3C)CCCO4)c1[C@H](OC(C)(C)C)C(=O)O)CCN2C(=O)c1ccc(C(F)(F)F)cc1F (atropisomer, axis not shown) [Example 136]
NOT MET

Would you say Cc1cc(C(=O)N2CCc3c2cc(C)c([C@H](OC(C)(C)C)C(=O)O)c3-c2cc(F)c3c(c2C)CCCO3)ccc1Cl (atropisomer, axis not shown) [Example 110] shows pIC50 at minimum 8?
MET

Reported pIC50 reaches at least 8 for COc1ccc(C(=O)N2CCc3c2cc(C)c([C@H](OC(C)(C)C)C(=O)O)c3-c2cc(F)c3c(c2C)CCCO3)cc1F (atropisomer, axis not shown) [Example 74] ?
MET

Is the recorded value of pIC50 equal to or greater than 8 for this compound? Cc1cc2c(c(-c3cc(F)c4c(c3C)CCCO4)c1[C@H](OC(C)(C)C)C(=O)O)CCN2C(=O)c1ccc(C(F)(F)F)cc1 (atropisomer, axis not shown) [Example 46]
MET

Could you please find out whether COc1cc(Cl)ccc1C(=O)N1CCc2c1cc(C)c([C@H](OC(C)(C)C)C(=O)O)c2-c1ccc2c(c1C)CCCO2 (atropisomer, axis not shown) [Example 183] has pIC50 that meets 8 or exceeds it?
MET
